measured on: AP-2 complex subunit beta (Homo sapiens)
assay procedure: beta-arrestin/AP2 interaction blockers – biochemical, validation set, GST-AP2 beads, flow cytometry, pilot screen (AID 504541);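 note: AP2 carries R879A mutation and is captured from E. coli lysate; bead-bound FITC arrestin peptide fluorescence measuring arrestin peptide binding to AP2; 0% = DMSO wells and 100% = excess unlabeled arrestin peptide control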
assay conditions: FITC arrestin peptide, at 10 µM, hits give high values, AP2 beta2 appendage fragment, R879A mutant
inhibition values by entry
Reply with just the number (in %).

Please review the entries below; each comes with its answer.
[[record]]
molecule = "CC1Cc2ccccc2N1NC(=O)c1ccc(Cl)c(S(N)(=O)=O)c1 (stereo unspecified)"
unit_string = "%"
value_reported = 7.39

[[record]]
molecule = "CC12CCCCN1CCCc1c2[nH]c2ccccc12 (stereo unspecified)"
unit_string = "%"
value_reported = 3.51

[[record]]
molecule = "O=C(O)[C@@H](O)c1ccccc1"
unit_string = "%"
value_reported = 10.1

[[record]]
molecule = "O=C(NC1CCCCC1)c1cc2nc(-c3ccco3)cc(C(F)(F)F)n2n1"
unit_string = "%"
value_reported = 1.72

[[record]]
molecule = "Nc1cnn(C2OC(CO)C(O)C2O)c(=O)n1 (stereo unspecified)"
unit_string = "%"
value_reported = 1.7


Please look at the following molecule next.
# lookup: inhibition of `O=C(O)CCCCCNC(=O)Nc1ccc2c(c1)OCCO2` -7.04

---

GFP response vs DMSO values by entry
assay procedure: hit retest on RPL19A-GFP reporter strain – cell-based, S. cerevisiae, flow cytometry, cherry picks, mother/daughter gates, confirmation (AID 2270)
assay conditions: 3 h, at 10 µM, hits give low values, 100 = same GFP as DMSO wells
Active and inactive are the calls of the source.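 Rule for the calls: active = GFP response below 50% of the DMSO control; inconclusive = fewer than 70 events counted for a yeast strain; inactive = the rest.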

Please review the entries below; each comes with its answer.
[[record]]
compound = "O=C(/C=C/c1ccc(Cl)c([N+](=O)[O-])c1)c1cccnc1"
value_reported = "91.5% (inactive)"

[[record]]
compound = "CC(=O)[C@@]1(O)CC[C@H]2[C@@H]3CCC4=CC(=O)CC[C@]4(C)[C@H]3[C@@H](O)C[C@@]21C"
value_reported = "99.3% (inactive)"

[[record]]
compound = "C#C[C@]1(O)CC[C@H]2[C@@H]3CCC4=CC(=O)CC[C@@H]4[C@H]3CC[C@@]21CC"
value_reported = "101% (inactive)"

[[record]]
compound = "CC(C)(C)c1ccc(C(=O)CC(Sc2ccc(Cl)cc2)C(=O)O)cc1 (stereo not given)"
value_reported = "100% (inactive)"

[[record]]
compound = "CC(C)(C)C(=O)/C=c1\\s/c(=C\\c2ccc(-c3ccc([N+](=O)[O-])cc3)o2)c(=O)n1CC(=O)NC(N)=O"
value_reported = "101% (inactive)"

[[record]]
compound = "CCS(=O)(=O)N1N=C(c2cccc(NS(C)(=O)=O)c2)CC1c1ccc(C)cc1 (stereo not given)"
value_reported = "100% (inactive)"

[[record]]
compound = "CC(NCCc1ccc(O)cc1)C(O)c1ccc(O)cc1 (stereo not given)"
value_reported = "93% (inactive)"

[[record]]
compound = "Cc1cc(C)c(C(=O)Cn2cnc3cc([N+](=O)[O-])ccc3c2=O)cc1C"
value_reported = "100% (inactive)"


# lookup: GFP response vs DMSO of `C[C@]12CC[C@H]3[C@@H](CCC4=CC(=O)CC[C@@]43C)[C@@H]1CC[C@@H]2C(=O)CO` 97.8% (inactive)

# lookup: GFP response vs DMSO of `CN(C)CCN(Cc1ccccc1)c1ccccn1` 96.8% (inactive)

# lookup: GFP response vs DMSO of `CCOC(=O)N1CCN(C(=O)CCc2ccc(S(=O)(=O)NCCc3ccccc3)cc2)CC1` 99.3% (inactive)

# lookup: GFP response vs DMSO of `C[C@]12C[C@H](O)[C@H]3[C@@H](CCC4=CC(=O)CC[C@@]43C)[C@@H]1CC[C@@H]2C(=O)CO` 98.2% (inactive)

# lookup: GFP response vs DMSO of `O=C(O)CCNC(=O)c1ccccc1` 98.7% (inactive)

# lookup: GFP response vs DMSO of `CC(=O)O[C@]1(C(C)=O)CC[C@H]2[C@@H]3C[C@H](C)C4=CC(=O)CC[C@]4(C)[C@H]3CC[C@@]21C` 94.3% (inactive)

# lookup: GFP response vs DMSO of `N=c1c(C(=O)NCc2ccco2)cc2c(=O)n3ccccc3nc2n1CCc1ccccc1` 96.8% (inactive)

# lookup: GFP response vs DMSO of NS(=O)(=O)c1cc2c(cc1C(F)(F)F)NC(Cc1ccccc1)NS2(=O)=O (stereo not given) 95% (inactive)

# lookup: GFP response vs DMSO of `CN(C)c1ccc(/C=C/C(=O)c2cccc(Br)c2)cc1` 104% (inactive)

# lookup: GFP response vs DMSO of `COc1cc2c(cc1OC)C(c1ccccc1)=NCC2` 98.2% (inactive)

# lookup: GFP response vs DMSO of `Nc1[nH]c(=O)ncc1F` 74.7% (inactive)

# lookup: GFP response vs DMSO of `COC(=O)n1c(=S)oc2cc(Cl)ccc21` 106% (inactive)
